Measured values drawn from patent US10064839B2 for this set.

Experiment: i.v. and p.o. exposure study, rat
Assay type: in vivo
Conditions: plasma, po
Description: Mouse, rat and dog studies were conducted to assess i.v. and p.o. (oral) exposure.
quantity_measured: AUC
Remember to quote the unit after the number.

Query: Need AUC of CCN(CC)C/C=C\c1cc(F)ccc1S(=O)(=O)Nc1ccc2c(c1C(=O)O)OC[C@@H]1C[C@H]21 (single isomer, unassigned) [Example 12] , thanks.
Reply: 356 ng·h/mL

---

experiment: Solubility; format: physicochemical; settings: aqueous buffer; at pH 7.4
quantity_measured: solubility

Query: Need solubility of CCN(CC)C/C=C\c1cc(F)ccc1S(=O)(=O)Nc1ccc2c(c1C(=O)O)OC[C@@H]1C[C@H]21 (single isomer, unassigned) , thanks.
Reply: ~100 µg/mL

---

assay: i.v. and p.o. exposure study, rat; format: in vivo; settings: plasma, iv, read-out: Plasma T1/2 (converted)
quantity_measured: half-life (h)
Hi! Could you send only the number? It should be in h, unit omitted.

Query: Need half-life of CCN(CC)C/C=C\c1cc(F)ccc1S(=O)(=O)Nc1ccc2c(c1C(=O)O)OC[C@@H]1C[C@H]21 (single isomer, unassigned) [Example 12] , thanks.
Reply: 1.2

---

assay: i.v. and p.o. exposure study, dog; format: in vivo; details: plasma, iv, read-out: Plasma T1/2 (converted)
quantity_measured: half-life (h)
Hi! Could you send only the number? It should be in h, unit omitted.

Query: Need half-life of CCN(CC)C/C=C\c1cc(F)ccc1S(=O)(=O)Nc1ccc2c(c1C(=O)O)OC[C@@H]1C[C@H]21 (single isomer, unassigned) , thanks.
Reply: 3.6

---

Kindly supply the reported IC50 values for the records listed here.
molecular target: recombinant human MetAP2 (Homo sapiens, UniProt P50579); construct: made in house; host or cells: Sf9 insect cells; test: Recombinant human MetAP2 inhibition assay (MAS substrate, Amplex red fluorescence); format: biochemical; conditions: human recombinant MetAP2 manganese enzyme, 0.75 mM MAS substrate, 30 minutes at 25° C., pH 7.5; read-out: Activity (MetAP2 IC50 class)
Sequence (P50579 whole entry): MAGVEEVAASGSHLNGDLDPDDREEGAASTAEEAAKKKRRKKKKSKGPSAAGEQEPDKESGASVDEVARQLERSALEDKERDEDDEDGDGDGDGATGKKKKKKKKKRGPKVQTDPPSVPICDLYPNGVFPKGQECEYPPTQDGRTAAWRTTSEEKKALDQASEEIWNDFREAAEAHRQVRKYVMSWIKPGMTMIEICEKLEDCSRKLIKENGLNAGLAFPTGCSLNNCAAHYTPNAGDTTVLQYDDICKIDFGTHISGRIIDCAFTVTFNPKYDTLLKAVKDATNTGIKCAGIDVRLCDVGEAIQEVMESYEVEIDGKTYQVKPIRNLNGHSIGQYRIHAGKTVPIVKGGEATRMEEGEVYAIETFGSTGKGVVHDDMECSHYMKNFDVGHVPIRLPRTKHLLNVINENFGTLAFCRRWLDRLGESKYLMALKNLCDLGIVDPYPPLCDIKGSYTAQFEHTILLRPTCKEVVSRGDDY

Query: Need IC50 of O=C(O)c1c(NS(=O)(=O)c2ccc(F)cc2/C=C\CN2CCCC2)ccc2c1OCC1CC21 (single isomer, unassigned) , thanks.
Reply: 50 to 500 nM

Query: Could you do the same for CCN1CC[C@H](N(C)C(=O)Cc2cc(F)ccc2S(=O)(=O)Nc2ccc3c(c2C(=O)O)OC[C@@H]2C[C@H]32)C1 (mixture of isomers) , please?
Reply: 50 to 500 nM

Query: Could you do the same for CCN1CC(CNc2ccccc2S(=O)(=O)Nc2ccc3c(c2C(=O)O)OC[C@@H]2C[C@H]32)C1 (racemic) , please?
Reply: 50 to 500 nM

Query: Could you do the same for CCN1CC[C@@H](Cc2cc(F)ccc2S(=O)(=O)Nc2ccc3c(c2C(=O)O)OCC2CC32)C1 (single isomer, unassigned) , please?
Reply: < 50 nM

Query: Could you do the same for O=C(O)c1c(NS(=O)(=O)c2ccccc2)ccc2c3c(cnc12)OCC3 , please?
Reply: < 50 nM

Query: Could you do the same for CCN1CC[C@@H](N(C)C(=O)Cc2cc(F)ccc2S(=O)(=O)Nc2ccc3c(c2C(=O)O)OC[C@@H]2C[C@H]32)C1 (mixture of isomers) , please?
Reply: 50 to 500 nM

---

assay: i.v. and p.o. exposure study, dog; type: in vivo; conditions: plasma, iv, read-out: Vss
quantity_measured: Vd (L/kg)
Hi! Could you send only the number? It should be in L/kg, unit omitted.

Query: Need Vd of CCN(CC)C/C=C\c1cc(F)ccc1S(=O)(=O)Nc1ccc2c(c1C(=O)O)OC[C@@H]1C[C@H]21 (single isomer, unassigned) , thanks.
Reply: 1.3

---

molecular target: MetAP1 (Homo sapiens, UniProt P53582); test: MetAP1 IC50; format: biochemical; details: second value of the cell; read-out: MetAP2/MetAP1 IC50 (nM): MetAP1
quantity_measured: IC50 (nM)
Hi! Could you send only the number? It should be in nM, unit omitted.

Query: Need IC50 of CCN(CC)C/C=C\c1cc(F)ccc1S(=O)(=O)Nc1ccc2c(c1C(=O)O)OC[C@@H]1C[C@H]21 (single isomer, unassigned) , thanks.
Reply: 50000

---

assay: i.v. and p.o. exposure study, rat; type: in vivo; conditions: plasma, iv, read-out: Vss
quantity_measured: Vd (L/kg)
Hi! Could you send only the number? It should be in L/kg, unit omitted.

Query: Need Vd of CCN(CC)C/C=C\c1cc(F)ccc1S(=O)(=O)Nc1ccc2c(c1C(=O)O)OC[C@@H]1C[C@H]21 (single isomer, unassigned) [Example 12] , thanks.
Reply: 3.4

---

system: diet induced obese mice (C57BL6); assay: Diet induced obese mice, 10 days oral 30 mg/kg: body weight and serum cholesterol; type: in vivo, mouse; details: DIO C57BL6 mice, 30 mg/kg oral gavage, serum
quantity_measured: Cholesterol Change

// known answers, use as guide
CCN(CC)C/C=C\c1cc(F)ccc1S(=O)(=O)Nc1ccc2c(c1C(=O)O)OCc1occc1-2 :: −35%
CCN(CC)C/C=C\c1cc(F)ccc1S(=O)(=O)Nc1ccc2c(c1C(=O)O)OCCc1occc1-2 :: No change
CCN(CC)C/C=C\c1cc(F)ccc1S(=O)(=O)Nc1ccc2c(c1C(=O)O)OC[C@H]1CCCN21 :: −24%
CCN(CC)C/C=C\c1cc(F)ccc1S(=O)(=O)Nc1ccc2c(ncc3occc32)c1C(=O)O :: No change

Now for a further compound.
Query: Need Cholesterol Change of CCN(CC)C/C=C\c1ccccc1S(=O)(=O)Cc1ccc(-c2ccoc2)c(OC)c1C(=O)O , thanks.
Reply: No change

---

experiment: i.v. and p.o. exposure study, mouse; type: in vivo; conditions: plasma, iv
quantity_measured: clearance (mL/min/kg)
Hi! Could you send only the number? It should be in mL/min/kg, unit omitted.

Query: Need clearance of CCN(CC)C/C=C\c1cc(F)ccc1S(=O)(=O)Nc1ccc2c(c1C(=O)O)OC[C@@H]1C[C@H]21 (single isomer, unassigned) , thanks.
Reply: 126

---

assay: i.v. and p.o. exposure study, mouse; format: in vivo; details: plasma, iv, read-out: Vss
quantity_measured: Vd (L/kg)
Hi! Could you send only the number? It should be in L/kg, unit omitted.

Query: Need Vd of CCN(CC)C/C=C\c1cc(F)ccc1S(=O)(=O)Nc1ccc2c(c1C(=O)O)OC[C@@H]1C[C@H]21 (single isomer, unassigned) [Example 12] , thanks.
Reply: 3.1

---

experiment: i.v. and p.o. exposure study, rat; type: in vivo; settings: plasma, po
quantity_measured: bioavailability (%)
Hi! Could you send only the number? It should be in %, unit omitted.

Query: Need bioavailability of CCN(CC)C/C=C\c1cc(F)ccc1S(=O)(=O)Nc1ccc2c(c1C(=O)O)OC[C@@H]1C[C@H]21 (single isomer, unassigned) , thanks.
Reply: 22

---

system: CYP (isoform not given); assay: CYP IC50, HLM; format: in vitro ADME; conditions: human, human liver microsomes
quantity_measured: IC50

Query: Need IC50 of CCN(CC)C/C=C\c1cc(F)ccc1S(=O)(=O)Nc1ccc2c(c1C(=O)O)OC[C@@H]1C[C@H]21 (single isomer, unassigned) , thanks.
Reply: > 10 µM

---

test: Plasma protein binding, mouse; format: in vitro ADME; conditions: read-out: Plasma protein binding (h/r/m, %): m
quantity_measured: fraction unbound

Query: Need fraction unbound of CCN(CC)C/C=C\c1cc(F)ccc1S(=O)(=O)Nc1ccc2c(c1C(=O)O)OC[C@@H]1C[C@H]21 (single isomer, unassigned) [Example 12] , thanks.
Reply: > 0.3

---

assay: i.v. and p.o. exposure study, dog; format: in vivo; details: plasma, po
quantity_measured: bioavailability
Remember to quote the unit after the number.

Query: Need bioavailability of CCN(CC)C/C=C\c1cc(F)ccc1S(=O)(=O)Nc1ccc2c(c1C(=O)O)OC[C@@H]1C[C@H]21 (single isomer, unassigned) , thanks.
Reply: 20%

---

experiment: i.v. and p.o. exposure study, rat; format: in vivo; settings: plasma, iv
quantity_measured: clearance (mL/min/kg)
Hi! Could you send only the number? It should be in mL/min/kg, unit omitted.

Query: Need clearance of CCN(CC)C/C=C\c1cc(F)ccc1S(=O)(=O)Nc1ccc2c(c1C(=O)O)OC[C@@H]1C[C@H]21 (single isomer, unassigned) [Example 12] , thanks.
Reply: 54

---

target: recombinant human MetAP2 (Homo sapiens, UniProt P50579); construct: made in house; host or cells: Sf9 insect cells; assay: Recombinant human MetAP2 inhibition assay (MAS substrate, Amplex red fluorescence); assay type: biochemical; details: human recombinant MetAP2 manganese enzyme, 0.75 mM MAS substrate, 30 minutes at 25° C., pH 7.5; read-out: Activity (MetAP2 IC50 class)
pIC50: −log10 of the molar value.
quantity_measured: pIC50

Query: Need pIC50 of CCN(CC)CC/C=C\c1cc(F)ccc1S(=O)(=O)Nc1ccc2c(c1C(=O)O)OC[C@@H]1C[C@H]21 (racemic) , thanks.
Reply: > 7.30

Query: Could you do the same for CCN1CC[C@@H](Cc2cc(F)ccc2S(=O)(=O)Nc2ccc3c(c2C(=O)O)OCC2CC32)C1 (single isomer, unassigned) , please?
Reply: 6.30 to 7.30

Query: Could you do the same for CC(C)NC/C=C\c1cc(F)ccc1S(=O)(=O)Nc1ccc2c(c1C(=O)O)OC[C@@H]1C[C@H]21 (racemic) , please?
Reply: 6.30 to 7.30

Query: Could you do the same for CN(C)CCCNc1ccccc1S(=O)(=O)Nc1ccc2c(c1C(=O)O)OCC1CC21 (single isomer, unassigned) , please?
Reply: > 7.30

Query: Could you do the same for O=C(O)c1c(NS(=O)(=O)c2ccc(F)cc2/C=C\CN2CCCC2)ccc2c1OCC1CC21 (single isomer, unassigned) , please?
Reply: 6.30 to 7.30

Query: Could you do the same for CCN1CC[C@@H](NC(=O)Cc2cc(F)ccc2S(=O)(=O)Nc2ccc3c(c2C(=O)O)OC[C@@H]2C[C@H]32)C1 (mixture of isomers) , please?
Reply: 6.30 to 7.30

Query: Could you do the same for CCN(CC)C/C=C/c1cc(F)ccc1S(=O)(=O)Nc1ccc2c(c1C(=O)O)OC[C@@H]1C[C@]21C (racemic) , please?
Reply: 6.30 to 7.30

Query: Could you do the same for CCN(CC)C/C=C\c1cc(F)ccc1S(=O)(=O)Nc1ccc2c(c1C(=O)O)OC[C@@H]1C[C@]21C (racemic) , please?
Reply: > 7.30

Query: Could you do the same for O=C(O)c1c(NS(=O)(=O)c2ccc(F)cc2/C=C\CN2CC(O)C2)ccc2c1OC[C@@H]1C[C@H]21 (racemic) , please?
Reply: > 7.30

Query: Could you do the same for CCN1CCC[C@H]1C(=O)N(C)Cc1cc(F)ccc1S(=O)(=O)Nc1ccc2c(c1C(=O)O)OC[C@@H]1C[C@H]21 (mixture of isomers) , please?
Reply: 6.30 to 7.30

Query: Could you do the same for CCN(CC)C/C=C\c1cc(F)ccc1S(=O)(=O)Nc1ccc2c(c1C(=O)O)OC[C@@H]1[C@H]2C1(F)F (racemic) , please?
Reply: > 7.30

Query: Could you do the same for CN(C)CCCCNc1ccccc1S(=O)(=O)Nc1ccc2c(c1C(=O)O)OCC1CC21 (single isomer, unassigned) , please?
Reply: > 7.30
